test: Solubility by visual inspection of ink and prints; type: physicochemical; design: key: Good=Soluble (no solid bits in the ink and good printability); OK=Partially insoluble (some solid bits in the ink and slightly poor printability); Poor=Very noticeable insolubility (very noticeable solid bits in the ink and poor printability); details: visual inspection of inks and prints
attribute-measured: Solubility in Offset Black Ink 1

A selection of reference data follows.
[[record]]
compound = "O=C(c1ccccc1)c1cc2ccccc2oc1=O [Comparative Example 1, reference compound]"
result = "Poor"

[[record]]
compound = "COc1ccc2cc(C(=O)c3ccccc3)c(=O)oc2c1 [Comparative Example 2, reference compound]"
result = "Poor"

[[record]]
compound = "CCC(COC(=O)COc1ccc2cc(C(=O)c3ccccc3)c(=O)oc2c1)(COC(=O)COc1ccc2cc(C(=O)c3ccccc3)c(=O)oc2c1)COC(=O)COc1ccc2cc(C(=O)c3ccccc3)c(=O)oc2c1 [Inventive Example 14]"
result = "OK"

[[record]]
compound = "O=C(COc1ccc2cc(C(=O)c3ccccc3)c(=O)oc2c1)OCCOCCOCCOC(=O)COc1ccc2cc(C(=O)c3ccccc3)c(=O)oc2c1 [Inventive Example 11]"
result = "OK"

[[record]]
compound = "CCCCCCCCCCCCOC(=O)COc1ccc2cc(C(=O)c3ccccc3)c(=O)oc2c1 [Inventive Example 16]"
result = "OK"


# input Give Solubility in Offset Black Ink 1 for CCOC(=O)COc1ccc2cc(C(=O)c3ccccc3)c(=O)oc2c1 [Inventive Example 12]
# output OK

====

test: Solubility by visual inspection of ink and prints; assay type: physicochemical; design: key: Good=Soluble (no solid bits in the ink and good printability); OK=Partially insoluble (some solid bits in the ink and slightly poor printability); Poor=Very noticeable insolubility (very noticeable solid bits in the ink and poor printability); details: visual inspection of inks and prints
attribute-measured: Solubility in Offset Black Ink 2

[[record]]
compound = "CCOC(=O)COc1ccc2cc(C(=O)c3ccccc3)c(=O)oc2c1"
result = "OK"

[[record]]
compound = "O=C(COc1ccc2cc(C(=O)c3ccccc3)c(=O)oc2c1)OCCOCCOCCOC(=O)COc1ccc2cc(C(=O)c3ccccc3)c(=O)oc2c1"
result = "OK"

[[record]]
compound = "O=C(c1ccccc1)c1cc2ccccc2oc1=O [Comparative Example 1, reference compound]"
result = "Poor"

[[record]]
compound = "COc1ccc2cc(C(=O)c3ccccc3)c(=O)oc2c1 [Comparative Example 2, reference compound]"
result = "Poor"


Provide each entry's Solubility in Offset Black Ink 2 from the list below.
1. CCC(COC(=O)COc1ccc2cc(C(=O)c3ccccc3)c(=O)oc2c1)(COC(=O)COc1ccc2cc(C(=O)c3ccccc3)c(=O)oc2c1)COC(=O)COc1ccc2cc(C(=O)c3ccccc3)c(=O)oc2c1
2. CCCCCCCCCCCCOC(=O)COc1ccc2cc(C(=O)c3ccccc3)c(=O)oc2c1

# output
1: OK; 2: OK

====

Task for the reader: assign each of the following compounds its reported Cure index.
experiment: Cure index of ink-jet magenta inks; conditions: ketocoumarin 6.167% in Inventive Ink-Jet PI Blend, 84 mJ per pass, 70 m/min, rounded to nearest 0.5
Answers are plain numbers.

Worked set:
[[record]]
compound = "CCCCCCCCCCCCOC(=O)COc1ccc2cc(C(=O)c3ccccc3)c(=O)oc2c1"
result = 5

[[record]]
compound = "O=C(c1ccccc1)c1cc2ccccc2oc1=O [Comparative Example 1, reference compound]"
result = 38


Look up Cure index for the entries below, preserving their order.
1. CCC(COC(=O)COc1ccc2cc(C(=O)c3ccccc3)c(=O)oc2c1)(COC(=O)COc1ccc2cc(C(=O)c3ccccc3)c(=O)oc2c1)COC(=O)COc1ccc2cc(C(=O)c3ccccc3)c(=O)oc2c1
2. CCOC(=O)COc1ccc2cc(C(=O)c3ccccc3)c(=O)oc2c1
3. O=C(COc1ccc2cc(C(=O)c3ccccc3)c(=O)oc2c1)OCCOCCOC(=O)COc1ccc2cc(C(=O)c3ccccc3)c(=O)oc2c1

# output
[1, 3, 9]

# input Give Cure index for the following compound: O=C(COc1ccc2cc(C(=O)c3ccccc3)c(=O)oc2c1)OCCOCCOCCOC(=O)COc1ccc2cc(C(=O)c3ccccc3)c(=O)oc2c1
# output 1

====

test: Cure index (set-off cure test, sum of DL values); details: Offset Black Ink 1; ketocoumarin 5.10% in Inventive PI Blend 1; ~32 mJ per pass, 100 m/min; lower is superior cure
Would you mind telling me the reported Cure index of each entry?
Answers are plain numbers.

Solved entries:
[[record]]
compound = "CCC(COC(=O)COc1ccc2cc(C(=O)c3ccccc3)c(=O)oc2c1)(COC(=O)COc1ccc2cc(C(=O)c3ccccc3)c(=O)oc2c1)COC(=O)COc1ccc2cc(C(=O)c3ccccc3)c(=O)oc2c1"
result = 28

[[record]]
compound = "CCOC(=O)COc1ccc2cc(C(=O)c3ccccc3)c(=O)oc2c1"
result = 46

[[record]]
compound = "O=C(COc1ccc2cc(C(=O)c3ccccc3)c(=O)oc2c1)OCCOCCOCCOC(=O)COc1ccc2cc(C(=O)c3ccccc3)c(=O)oc2c1"
result = 53


Parameters: items (list). Returns: Cure index for each item.
1. CCCCCCCCCCCCOC(=O)COc1ccc2cc(C(=O)c3ccccc3)c(=O)oc2c1
2. O=C(c1ccccc1)c1cc2ccccc2oc1=O [Comparative Example 1, reference compound]
3. COc1ccc2cc(C(=O)c3ccccc3)c(=O)oc2c1 [Comparative Example 2, reference compound]

# output
1: 52; 2: 28; 3: 52

====

Test: Solubility by visual inspection of ink and prints
Assay type: physicochemical
Set-up: key: Good=Soluble (no solid bits in the ink and good printability); OK=Partially insoluble (some solid bits in the ink and slightly poor printability); Poor=Very noticeable insolubility (very noticeable solid bits in the ink and poor printability)
Details: visual inspection of inks and prints
Experimental: The solubility of the materials was assessed by visual inspection of the inks and from visual inspection of the prints. Insolubility is reported as follows: Good=Soluble (no solid bits in the ink and good printability); OK=Partially insoluble (some solid bits in the ink and slightly poor printability); Poor=Very noticeable insolubility (very noticeable solid bits in the ink and poor printability).
attribute-measured: Solubility in Ink-Jet Magenta Ink

Consider the worked cases shown below.
[[record]]
molecule = "CCCCCCCCCCCCOC(=O)COc1ccc2cc(C(=O)c3ccccc3)c(=O)oc2c1 [Inventive Example 16]"
result = "Poor"

[[record]]
molecule = "O=C(c1ccccc1)c1cc2ccccc2oc1=O [Comparative Example 1, reference compound]"
result = "Poor"

[[record]]
molecule = "O=C(COc1ccc2cc(C(=O)c3ccccc3)c(=O)oc2c1)OCCOCCOCCOC(=O)COc1ccc2cc(C(=O)c3ccccc3)c(=O)oc2c1 [Inventive Example 11]"
result = "OK"

[[record]]
molecule = "CCOC(=O)COc1ccc2cc(C(=O)c3ccccc3)c(=O)oc2c1 [Inventive Example 12]"
result = "Poor"

[[record]]
molecule = "CCC(COC(=O)COc1ccc2cc(C(=O)c3ccccc3)c(=O)oc2c1)(COC(=O)COc1ccc2cc(C(=O)c3ccccc3)c(=O)oc2c1)COC(=O)COc1ccc2cc(C(=O)c3ccccc3)c(=O)oc2c1 [Inventive Example 14]"
result = "Poor"


Parameter requested: Solubility in Ink-Jet Magenta Ink. Apply to each item below.
1. COc1ccc2cc(C(=O)c3ccccc3)c(=O)oc2c1 [Comparative Example 2, reference compound]
2. O=C(COc1ccc2cc(C(=O)c3ccccc3)c(=O)oc2c1)OCCOCCOC(=O)COc1ccc2cc(C(=O)c3ccccc3)c(=O)oc2c1 [Inventive Example 5]

# output
["Poor", "Good"]

====

assay: Solubility by visual inspection of ink and prints; assay type: physicochemical; set-up: key: Good=Soluble (no solid bits in the ink and good printability); OK=Partially insoluble (some solid bits in the ink and slightly poor printability); Poor=Very noticeable insolubility (very noticeable solid bits in the ink and poor printability); settings: visual inspection of inks and prints
attribute-measured: Solubility in Offset Black Ink 3

# count of solved cases: 5
[[record]]
compound = "CCOC(=O)COc1ccc2cc(C(=O)c3ccccc3)c(=O)oc2c1"
result = "OK"

[[record]]
compound = "O=C(COc1ccc2cc(C(=O)c3ccccc3)c(=O)oc2c1)OCCOCCOCCOC(=O)COc1ccc2cc(C(=O)c3ccccc3)c(=O)oc2c1"
result = "OK"

[[record]]
compound = "CCCCCCCCCCCCOC(=O)COc1ccc2cc(C(=O)c3ccccc3)c(=O)oc2c1"
result = "OK"

[[record]]
compound = "CCC(COC(=O)COc1ccc2cc(C(=O)c3ccccc3)c(=O)oc2c1)(COC(=O)COc1ccc2cc(C(=O)c3ccccc3)c(=O)oc2c1)COC(=O)COc1ccc2cc(C(=O)c3ccccc3)c(=O)oc2c1"
result = "OK"

[[record]]
compound = "O=C(c1ccccc1)c1cc2ccccc2oc1=O [Comparative Example 1, reference compound]"
result = "Poor"


Please look at the following compound next.
# input Let me know recorded Solubility in Offset Black Ink 3 for COc1ccc2cc(C(=O)c3ccccc3)c(=O)oc2c1 [Comparative Example 2, reference compound] , thanks.
# output Poor

Source listed as patent US9382433B2.
